Numbers sourced from patent EP1272220B2.

Experiment: Prevalence of adverse effects in randomised placebo controlled trials (treated minus control)
Type: in vivo, persons
Settings: preferred daily dose: Hydrochlorothiazide 12.5 mg, Atenolol 25 mg, Enalapril 5 mg, Aspirin 75 mg
READOUT: Commonest adverse effects

Query :: State the recorded Commonest adverse effects for this entry: CCOC(=O)[C@H](CCc1ccccc1)N[C@@H](C)C(=O)N1CCC[C@H]1C(=O)O
Result :: cough

* * *

Assay: Prevalence of adverse effects in randomised placebo controlled trials (treated minus control)
Type: in vivo, persons
Conditions: preferred daily dose: Hydrochlorothiazide 12.5 mg, Atenolol 25 mg, Enalapril 5 mg, Atorvastatin 10 mg, Aspirin 75 mg, Folic acid 0.8 mg
Marks after values point to notes of the source that are not given here.
READOUT: Prevalence of any adverse effect in randomised trials (treated minus control)

Query :: State the recorded Prevalence of any adverse effect in randomised trials (treated minus control) for this entry: CCOC(=O)[C@H](CCc1ccccc1)N[C@@H](C)C(=O)N1CCC[C@H]1C(=O)O
Result :: 2.1%^a

Query :: State the recorded Prevalence of any adverse effect in randomised trials (treated minus control) for this entry: NS(=O)(=O)c1cc2c(cc1Cl)NCNS2(=O)=O [Hydrochlorothiazide]
Result :: 1.4%^a

Query :: State the recorded Prevalence of any adverse effect in randomised trials (treated minus control) for this entry: CC(C)NCC(O)COc1ccc(CC(N)=O)cc1 (stereo not drawn)
Result :: 5.6%^a

Query :: State the recorded Prevalence of any adverse effect in randomised trials (treated minus control) for this entry: CC(C)c1c(C(=O)Nc2ccccc2)c(-c2ccccc2)c(-c2ccc(F)cc2)n1CC[C@@H](O)C[C@@H](O)CC(=O)O
Result :: 0.1%

Query :: State the recorded Prevalence of any adverse effect in randomised trials (treated minus control) for this entry: Nc1nc2ncc(CNc3ccc(C(=O)N[C@@H](CCC(=O)O)C(=O)O)cc3)nc2c(=O)[nH]1
Result :: <0.1%

Query :: State the recorded Prevalence of any adverse effect in randomised trials (treated minus control) for this entry: CC(=O)Oc1ccccc1C(=O)O
Result :: 1.8%^b
